# assayTarget: mfPRLR.mmh (monomeric macaca fascicularis PRLR)
# Sequence (as listed by the source): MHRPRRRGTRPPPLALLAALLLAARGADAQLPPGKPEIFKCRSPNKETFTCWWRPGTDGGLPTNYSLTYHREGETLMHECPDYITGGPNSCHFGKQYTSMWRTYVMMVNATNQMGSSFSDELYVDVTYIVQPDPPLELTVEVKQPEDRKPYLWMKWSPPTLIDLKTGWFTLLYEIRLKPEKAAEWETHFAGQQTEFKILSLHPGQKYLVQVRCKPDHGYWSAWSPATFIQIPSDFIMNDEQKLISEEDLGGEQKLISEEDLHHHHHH
# testProtocol: Surface plasmon resonance (Biacore T200), mAb-capture format
# Format: binding
# recordedConditions: 25° C., antibody-capture format, analyte mfPRLR.mmh
valueKind: Kd (nM)
Answers are plain numbers, in nM.

What value of Kd has been recorded for this entry: H1H6785P: anti-PRLR antibody, human IgG1 Fc; HCVR/LCVR SEQ ID NOs 98/106 (antibody, V domains shown, human IgG1 Fc) VH: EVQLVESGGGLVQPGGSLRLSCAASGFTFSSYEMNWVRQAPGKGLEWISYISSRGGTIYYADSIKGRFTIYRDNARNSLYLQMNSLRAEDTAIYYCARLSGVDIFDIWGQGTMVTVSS VL: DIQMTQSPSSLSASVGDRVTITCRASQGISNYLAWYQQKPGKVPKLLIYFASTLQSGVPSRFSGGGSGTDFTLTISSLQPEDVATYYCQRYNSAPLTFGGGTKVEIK
0.738
